Hey, just so you know, these numbers are from paper PMC2832307.

Assay: Acute intravenous toxicity
Set-up: species or system mice
Conditions: male, BALB/C, mouse, in vivo
experimental.readout: LD50 at 4 days (mg/kg)
Expressed in mg/kg, but write only the number.

Req: Item CNC(C)C1CCC(N)C(OC2C(N)CC(N)C(OC3OCC(C)(O)C(NC)C3O)C2O)O1 (stereo not shown) has what recorded LD50 at 4 days?
Resp: 60
